The reader will find reported melting point values listed item by item below.
Property: melting point

[[record]]
compound = "Cc1cc2nncn2nc1-c1ccccc1"
result = "188 to 190 °C"

[[record]]
compound = "O=C(Cc1ccccc1)Nc1ccccc1SCc1ccc(Cl)cc1"
result = "100 to 101 °C"

[[record]]
compound = "COc1ccc(Cl)cc1C(=O)c1cc(Cl)ccc1OC"
result = "108 °C"

[[record]]
compound = "O=C(OCC1OC(n2ccc(-n3cncn3)nc2=O)C(OC(=O)c2ccccc2)C1OC(=O)c1ccccc1)c1ccccc1 (stereo not given)"
result = "83 to 84 °C"

[[record]]
compound = "CC(NC(=O)Cc1cc(F)cc(F)c1)C(=O)NC1C(=O)NC(F)c2ccccc21 (stereo not given)"
result = "195 to 200 °C"

[[record]]
compound = "CCc1nc2c(-c3cc4c(c(Br)c3C)OCC4)ncnc2n1C(C1CC1)C1CC1"
result = "179 to 180 °C"

[[record]]
compound = "CC(C)(C)C(=O)OC1CC(=O)C2(C)CCC3C(CCC4=CC(=O)CCC43C)C12 (stereo not given)"
result = "148 to 150 °C"

[[record]]
compound = "CCNc1cnc(-c2ccccc2)c(-c2ccccc2)n1"
result = "121 to 123 °C"

[[record]]
compound = "O=S1(=O)N=C(NOCc2ccccc2)Nc2ccc(Cl)cc21"
result = "> 220 °C"

[[record]]
compound = "CC(C)(C)OC(=O)c1cc(N2CCOCC2)cc([N+](=O)[O-])c1"
result = "116 to 118 °C"

[[record]]
compound = "Cc1cc(-c2nc3ccc(CN4CCN(C)CC4)cc3c(=O)[nH]2)cc(C)n1"
result = "229 to 230 °C"

[[record]]
compound = "CC(C)(C)OC(=O)NCCNC(=O)c1cccc2c1c(C(=O)C(=O)NC1=CC(=O)OC1)cn2Cc1ccc(Cl)cc1"
result = "218 to 219 °C"

[[record]]
compound = "Cc1cc(C)nc(OC(C)C(=O)NS(=O)(=O)c2ccccc2)n1 (stereo not given)"
result = "188 °C"

[[record]]
compound = "CC(CC(O)(CNc1ccc2c(c1)COC2=O)C(F)(F)F)c1ccccc1 (stereo not given)"
result = "110 °C"

[[record]]
compound = "NC(=O)C1CCN(c2c(Br)cncc2Br)CC1"
result = "158 to 160 °C"

[[record]]
compound = "O=C(O)c1ccc(CCNc2c(C(=O)O)cc(Cl)cc2[N+](=O)[O-])cc1"
result = "255 to 257 °C"

[[record]]
compound = "O=C(Oc1cccc2sc(-c3ccc(OCCN4CCCC4)cc3)c(C(=O)c3ccc(F)cc3)c12)c1ccc(F)cc1"
result = "58 to 63 °C"

[[record]]
compound = "COc1ccc(C(=O)NNC(=O)c2ccccc2)cc1"
result = "201 to 202 °C"

[[record]]
compound = "COc1ccc(S)nn1"
result = "198 to 200 °C"

[[record]]
compound = "NC1CCN(c2ccc3c4c(cccc24)C(=O)N(O)C3=O)C1 (stereo not given)"
result = "238 to 242 °C"

[[record]]
compound = "COc1cc(C(=O)NS(=O)(=O)c2ccccc2Cl)ccc1Cn1cc(CCC(=O)N(C)C)c2ccc(CCC(=O)N(C)C)cc21"
result = "134 to 137 °C"

[[record]]
compound = "CON(C)C(=O)c1cc2cccc(NS(=O)(=O)c3cccs3)c2[nH]1"
result = "180 to 181 °C"

[[record]]
compound = "CC(C)(C)Oc1nc2cc(F)c([N+](=O)[O-])cc2nc1Cl"
result = "141 to 143 °C"

[[record]]
compound = "COc1ccc2c(c1)c(CC(C)NC(=O)C(F)(F)F)c1n2CCC1 (racemic)"
result = "131 to 133 °C"

[[record]]
compound = "COCC1OC(n2cnc3c(NC4CCCC4)ncnc32)C(O)C1O (stereo not given)"
result = "164 to 166 °C"

[[record]]
compound = "CCC1Cc2cc(OCC(=O)OC)c(Cl)c(Cl)c2C1=O (stereo not given)"
result = "134 to 137 °C"

[[record]]
compound = "Cc1oc(-c2ccccc2)nc1COc1ccc(COc2cncc(CO)c2)cc1"
result = "128 to 130 °C"

[[record]]
compound = "O=C(O)/C=C/c1ccc(N2CCCC2)nc1"
result = "170 °C"

[[record]]
compound = "NC(=O)c1ccc(CCN2CCN(Cc3ccccc3Cl)CC2)cc1"
result = "170 to 173 °C"

[[record]]
compound = "CCCn1c(COCC)nc2c(N)nc3cc(OCCN4CCOCC4)ccc3c21"
result = "191 to 192 °C"

[[record]]
compound = "Cc1c(C=O)c2cc(F)ccc2n1-c1ccc(OCc2ccccc2)cc1"
result = "219 to 220 °C"

[[record]]
compound = "CS(=O)(=O)c1ccc(-c2oc(C(F)F)cc(=O)c2-c2ccc(Cl)cc2)cc1"
result = "168 to 170 °C"

[[record]]
compound = "CCOC(=O)c1[nH]c2cc3c(sc4ccccc43)c(C)c2c1C"
result = "191 to 193 °C"

[[record]]
compound = "NC(=O)C(=O)Nc1nc(-c2oncc2-c2c(F)cccc2Cl)cs1"
result = "235 to 237 °C"

[[record]]
compound = "O=C(Nc1nnn[nH]1)c1ccc(OCCn2ccnc2)cc1"
result = "263 °C"

[[record]]
compound = "CC(C)c1ccc(C=O)c(=O)c(O)c1"
result = "76 °C"

[[record]]
compound = "O=C1C(=O)c2ccccc2C2=C1SCC1(CCN(S(=O)(=O)c3cccs3)CC1)O2"
result = "245 to 248 °C"

[[record]]
compound = "Cc1nc2ccc(Cl)cc2c(-c2ccc(F)cc2)c1CO"
result = "173 to 175 °C"

[[record]]
compound = "O=C(Nc1ccc(C(=O)Oc2ccccc2)c(Cl)c1)NS(=O)(=O)c1ccccc1"
result = "183 to 185 °C"

[[record]]
compound = "CC(=NOCCO)c1ccc(-c2ccccc2)cc1"
result = "128 to 130 °C"

